meta.source: paper PMC7070320

System: HeLa
Assay: Cytotoxicity assay (Alamar Blue), HeLa cells
Format: cell-based
Conditions: Homo sapiens, 24 h of treatment, read-out: IC50 based on the survival of cells
Below, each entry is listed with its recorded IC50.
Give a bare numeral; the unit µM is implied.

1) O=C1Nc2ccc(Br)cc2C(=O)Nc2ccccc21 [Compound 10b]	97.3

Bench note, HeLa: CN1C(=O)c2cc([N+](=O)[O-])ccc2NC(=O)c2ccccc21 [Compound 10f] , IC50 reads 206

Note to self: IC50 of CN1C(=O)c2cc(Br)ccc2N(Cc2cccc3ccccc23)C(=O)c2ccccc21 [Compound 10k] with HeLa was 75.3

Field IC50 (HeLa), entry COc1cc2c(cc1OC)C(=S)Nc1ccc(Br)cc1C(=S)N2 [Compound 10p] : 115

Fill in: HeLa IC50 for CN1C(=O)c2cc3ccccc3cc2NC(=O)c2cc(Cl)ccc21 [Compound 10h] = 107

Form field, IC50 with HeLa, item O=C1Nc2ccccc2C(=O)N(Cc2ccc(Br)cc2)c2ccccc21 [Compound 10j] : 138

---

property_name: melting point

1. COc1cc2c(cc1OC)C(=O)N(C)c1ccccc1C(=O)N2 [Compound 10g]	271 to 272 °C
2. COc1cc2c(cc1OC)C(=S)Nc1ccc(Br)cc1C(=S)N2 [Compound 10p]	186 to 187 °C (dec.)
3. CN1C(=O)c2cc(Br)ccc2NC(=O)c2ccccc21 [Compound 10e]	247 to 248 °C
4. CN1C(=O)c2cc(Br)ccc2N(Cc2cccc3ccccc23)C(=O)c2ccccc21 [Compound 10k]	255 to 256 °C
5. CN1C(=O)c2ccccc2NC(=O)c2ccccc21 [Compound 10d]	258 to 259 °C

// melting point value for O=C1Nc2ccccc2C(=O)N(Cc2ccccc2)c2ccccc21 [Compound 10i] : 212 to 213 °C

molecule O=C1Nc2ccccc2C(=O)N(Cc2ccc(Br)cc2)c2ccccc21 [Compound 10j] , melting point observed: 222 to 223 °C

For reference, reported melting point for CN1C(=O)c2cc3ccccc3cc2NC(=O)c2cc(Cl)ccc21 [Compound 10h] stands at 270 to 271 °C

The molecule identified as CC(=O)N1C(=O)c2ccccc2N(C)C(=O)c2ccccc21 [Compound 10o] registered its melting point at 193 to 194 °C

# molecule COc1cc2c(cc1OC)C(=O)Nc1ccc(Br)cc1C(=O)N2 [Compound 10c] ; its melting point = 195 to 196 °C

---

pIC50 for assorted molecules
Tested on: HEK293
Assay: Cytotoxicity assay (Alamar Blue), HEK293 cells
Assay type: cell-based, human
Conditions: Homo sapiens, HEK293, 24 h, HEK293, 24 h of treatment; read-out: IC50 based on the survival of cells
pIC50: −log10 of the molar value.

Example molecules with recorded pIC50:
1. COc1cc2c(cc1OC)C(=S)Nc1ccc(Br)cc1C(=S)N2 [Compound 10p]	< 3.70
2. CN1C(=O)c2cc(Br)ccc2N(Cc2cccc3ccccc23)C(=O)c2ccccc21 [Compound 10k]	3.92

Field: next molecule
The molecule identified as CN1C(=O)c2cc3ccccc3cc2NC(=O)c2cc(Cl)ccc21 [Compound 10h] registered its pIC50 at < 3.70

---

System: EUFA30
Assay: Cytotoxicity assay (Alamar Blue), EUFA30 cells
Format: cell-based
Settings: Homo sapiens; Eufa30, 24 h of treatment; read-out: IC50 based on the survival of cells
Recorded IC50 values for a group of compounds are listed next.
// units = µM; emit number, no label

1. CN1C(=O)c2cc(Br)ccc2N(Cc2cccc3ccccc23)C(=O)c2ccccc21 [Compound 10k]	87.6

The measured IC50 associated with CN1C(=O)c2cc3ccccc3cc2NC(=O)c2cc(Cl)ccc21 [Compound 10h] reads 170
